- test target: MKK4_m (Mus musculus (Mouse), UniProt P47809)
- Sequence (P47809 whole entry): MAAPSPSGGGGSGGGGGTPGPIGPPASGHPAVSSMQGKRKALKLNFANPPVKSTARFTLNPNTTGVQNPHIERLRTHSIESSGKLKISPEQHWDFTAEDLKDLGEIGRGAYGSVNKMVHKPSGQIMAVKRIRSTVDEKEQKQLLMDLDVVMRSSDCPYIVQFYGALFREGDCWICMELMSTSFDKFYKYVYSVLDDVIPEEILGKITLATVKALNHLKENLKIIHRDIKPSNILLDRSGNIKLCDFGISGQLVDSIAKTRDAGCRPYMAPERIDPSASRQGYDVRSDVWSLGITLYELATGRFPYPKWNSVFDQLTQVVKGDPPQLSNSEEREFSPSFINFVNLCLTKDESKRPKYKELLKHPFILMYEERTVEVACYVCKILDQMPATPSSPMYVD
- assay info: KinaseProfiler off-target kinase profiling
- Assay type: biochemical
- condition summary: 10 μM, ATP near Km
test readout: Avg. POC (POC)

The examples below pair each entry with its known result.
{"molecule": "Cc1c(-c2cnn(C)c2)nn(-c2ccccc2)c1NC(=O)N[C@H]1CCCc2ccccc21 [Example 2]", "test target": "MKK4_m (Mus musculus (Mouse), UniProt P47809)", "result units": "POC", "Avg. POC": 102.5}
{"molecule": "COCc1ccc2c(c1)C(NC(=O)Nc1c(C)c(-c3cnn(C)c3)nn1-c1ccccc1)COC2 (stereo not shown) [Example 32]", "test target": "MKK4_m (Mus musculus (Mouse), UniProt P47809)", "result units": "POC", "Avg. POC": 133}

P = Cc1c(-c2ccc(=O)n(C)c2)nn(-c2ccccc2)c1NC(=O)NC1CN(CC(F)(F)F)Cc2ccccc21 (stereo not shown) [Example 26]
Q = Cc1c(-c2cnn(C)c2)nn(-c2ccccc2)c1NC(=O)NC1CCOc2cc(F)ccc21 (stereo not shown) [Example 12]
# input Of the two listed items, which has the higher Avg. POC? First: P Second: Q Write down the label attached to your selection.
# output Q

Origin of values: patent US10351575B2
